So I've got a bunch of binders here, and I need their koff values.
Target Of Assay: SARS-CoV-2 spike protein (SARS-CoV-2), P0DTC2
Assay Context: remark: other sources report otherwise
Kindly provide the numeric value in s⁻¹ only, without the unit symbol.

Please fill in: koff reported for antibody 436 (antibody, V domains shown) VH: QVQVVESGGGVVQPGRSLRLSCAASGFTFSSYAMHWVRQAPGKGLEWVAVISYDGNNEYYVDPVKGRFTISRDNSKNTLYLQMNSLRAEDTALYYCATSREAIVVGGILDYWGQGTLVTVSS VL: DIQMTQSPSSLSASVGDRVTITCQASHDINNFLNWYQQKPGQAPKLLIYDASNLETGVPSRFSGSGSGTDFTFTISSLHPEDVATYYCQQYDGLPRYVTFGQGTKLEIR = 0.000352

Short answer for antibody 464 (antibody, V domains shown) VH: QVQLVQSGAEVKKPGASVKVSCKVSGYTLTELSMHWVRQAPGKGLEWMGGFDPEDGETIYAQKFQGRVTMTEDTSTDTAYMELSSLRSEDTAVYYCATARAFGVANWFDPWGQGTLVTVSS VL: QSVLTQPPSASGTPGQRVTISCSGSSSNIGSNYVYWYQQLPGTAPKLLIYRNNQRPSGVPDRFSGSKSGTSASLAISGLRSEDEADYYCAAWDDSLSGLYVFGTGTKVTVL : koff was 0.000512
